Cited source for all entries: the supplement of paper PMC10567573

B1: TRIB1 (parent)
chain: EIGTSDQIVPEYQEDSDISSFFC

variants of: B1; test: protein stability index of a GFP-peptide fusion (GPS, HEK-293T) (PSI 1-6); higher = more stable; settings: c terminus: native;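 also: lentivirally expressed fusions sorted by FACS into six bins by GFP to DsRed ratio, PSI derived from sequencing read proportions per bin multiplied by bin number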
Exercise: for every item that follows, state its recorded protein stability index.

**Q:** Given the entry "S5F" , report its measured protein stability index.
**A:** 2.31

**Q:** Given the entry "I2Q" , report its measured protein stability index.
**A:** 2.73

**Q:** Given the entry "Q7L" , report its measured protein stability index.
**A:** 4.94

**Q:** Given the entry "D17W" , report its measured protein stability index.
**A:** 2.42

**Q:** Given the entry "F22K" , report its measured protein stability index.
**A:** 5.29

**Q:** Given the entry "S19F" , report its measured protein stability index.
**A:** 1.99

**Q:** Given the entry "P10K" , report its measured protein stability index.
**A:** 5.56

**Q:** Given the entry "S20M" , report its measured protein stability index.
**A:** 2.62

**Q:** Given the entry "T4V" , report its measured protein stability index.
**A:** 2.67

**Q:** Given the entry "Q7V" , report its measured protein stability index.
**A:** 5.02

**Q:** Given the entry "S20Y" , report its measured protein stability index.
**A:** 2.42

**Q:** Given the entry "D15P" , report its measured protein stability index.
**A:** 3.02

**Q:** Given the entry "D15C" , report its measured protein stability index.
**A:** 2.62

**Q:** Given the entry "E14L" , report its measured protein stability index.
**A:** 1.99

**Q:** Given the entry "V9H" , report its measured protein stability index.
**A:** 5.32

**Q:** Given the entry "D17G" , report its measured protein stability index.
**A:** 4.13

**Q:** Given the entry "S19Y" , report its measured protein stability index.
**A:** 1.84

**Q:** Given the entry "E11F" , report its measured protein stability index.
**A:** 3.63

**Q:** Given the entry "I8T" , report its measured protein stability index.
**A:** 4.29

**Q:** Given the entry "Q13L" , report its measured protein stability index.
**A:** 2.77

**Q:** Given the entry "E14C" , report its measured protein stability index.
**A:** 2.48

**Q:** Given the entry "S20R" , report its measured protein stability index.
**A:** 3.89

**Q:** Given the entry "S20A" , report its measured protein stability index.
**A:** 3.2

**Q:** Given the entry "E14M" , report its measured protein stability index.
**A:** 2.4

**Q:** Given the entry "E1A" , report its measured protein stability index.
**A:** 2.7

**Q:** Given the entry "E14V" , report its measured protein stability index.
**A:** 2.08

**Q:** Given the entry "Q7A" , report its measured protein stability index.
**A:** 5.23

**Q:** Given the entry "I18E" , report its measured protein stability index.
**A:** 2.69

**Q:** Given the entry "S19T" , report its measured protein stability index.
**A:** 2.35

**Q:** Given the entry "D6E" , report its measured protein stability index.
**A:** 4.77

**Q:** Given the entry "F22D" , report its measured protein stability index.
**A:** 3.86

**Q:** Given the entry "S20V" , report its measured protein stability index.
**A:** 2.53

**Q:** Given the entry "F21I" , report its measured protein stability index.
**A:** 3.59

**Q:** Given the entry "Q13Y" , report its measured protein stability index.
**A:** 2.12

**Q:** Given the entry "Q7M" , report its measured protein stability index.
**A:** 4.79

**Q:** Given the entry "I8F" , report its measured protein stability index.
**A:** 5.17

**Q:** Given the entry "D17R" , report its measured protein stability index.
**A:** 3.48

**Q:** Given the entry "E14Y" , report its measured protein stability index.
**A:** 2.43

**Q:** Given the entry "P10A" , report its measured protein stability index.
**A:** 5.38

**Q:** Given the entry "D6P" , report its measured protein stability index.
**A:** 4.84

**Q:** Given the entry "I8G" , report its measured protein stability index.
**A:** 4.66

**Q:** Given the entry "F21N" , report its measured protein stability index.
**A:** 4.7

**Q:** Given the entry "C23F" , report its measured protein stability index.
**A:** 2.29

**Q:** Given the entry "E11N" , report its measured protein stability index.
**A:** 3.08

**Q:** Given the entry "F21S" , report its measured protein stability index.
**A:** 4.08

**Q:** Given the entry "E14I" , report its measured protein stability index.
**A:** 1.68

**Q:** Given the entry "S5A" , report its measured protein stability index.
**A:** 2.81

**Q:** Given the entry "F21Q" , report its measured protein stability index.
**A:** 4.23

**Q:** Given the entry "F22E" , report its measured protein stability index.
**A:** 4.3

**Q:** Given the entry "Y12T" , report its measured protein stability index.
**A:** 4.48

**Q:** Given the entry "S19L" , report its measured protein stability index.
**A:** 2.32

**Q:** Given the entry "S20K" , report its measured protein stability index.
**A:** 4.34

**Q:** Given the entry "V9F" , report its measured protein stability index.
**A:** 4.94

**Q:** Given the entry "V9D" , report its measured protein stability index.
**A:** 5.51

**Q:** Given the entry "V9T" , report its measured protein stability index.
**A:** 5.53

**Q:** Given the entry "S16G" , report its measured protein stability index.
**A:** 2.9

**Q:** Given the entry "G3K" , report its measured protein stability index.
**A:** 2.65

**Q:** Given the entry "E11Y" , report its measured protein stability index.
**A:** 3.46

**Q:** Given the entry "S20T" , report its measured protein stability index.
**A:** 3.07

**Q:** Given the entry "D6L" , report its measured protein stability index.
**A:** 4.45

**Q:** Given the entry "Y12Q" , report its measured protein stability index.
**A:** 4.51

**Q:** Given the entry "D17L" , report its measured protein stability index.
**A:** 3.2

**Q:** Given the entry "I2N" , report its measured protein stability index.
**A:** 2.74

**Q:** Given the entry "F21P" , report its measured protein stability index.
**A:** 4.6

**Q:** Given the entry "I2C" , report its measured protein stability index.
**A:** 2.57

**Q:** Given the entry "I8Q" , report its measured protein stability index.
**A:** 3.93

**Q:** Given the entry "E1Q" , report its measured protein stability index.
**A:** 2.57

**Q:** Given the entry "T4Y" , report its measured protein stability index.
**A:** 3.1

**Q:** Given the entry "S19Q" , report its measured protein stability index.
**A:** 3.48

**Q:** Given the entry "P10R" , report its measured protein stability index.
**A:** 5.56

**Q:** Given the entry "S16T" , report its measured protein stability index.
**A:** 2.56

**Q:** Given the entry "S19K" , report its measured protein stability index.
**A:** 4.21

**Q:** Given the entry "P10N" , report its measured protein stability index.
**A:** 5.23

**Q:** Given the entry "S20L" , report its measured protein stability index.
**A:** 1.79

**Q:** Given the entry "S19W" , report its measured protein stability index.
**A:** 1.56

**Q:** Given the entry "Q13T" , report its measured protein stability index.
**A:** 1.97

**Q:** Given the entry "G3I" , report its measured protein stability index.
**A:** 2.42

**Q:** Given the entry "I8L" , report its measured protein stability index.
**A:** 4.11

**Q:** Given the entry "G3S" , report its measured protein stability index.
**A:** 2.57

**Q:** Given the entry "Q7R" , report its measured protein stability index.
**A:** 5.27

**Q:** Given the entry "C23A" , report its measured protein stability index.
**A:** 3.08

**Q:** Given the entry "D17K" , report its measured protein stability index.
**A:** 4.29

**Q:** Given the entry "E14A" , report its measured protein stability index.
**A:** 2.81

**Q:** Given the entry "Y12I" , report its measured protein stability index.
**A:** 2.91

**Q:** Given the entry "F22M" , report its measured protein stability index.
**A:** 3.16

**Q:** Given the entry "Y12G" , report its measured protein stability index.
**A:** 3.27

**Q:** Given the entry "P10C" , report its measured protein stability index.
**A:** 5.2

**Q:** Given the entry "V9P" , report its measured protein stability index.
**A:** 5.38

**Q:** Given the entry "C23P" , report its measured protein stability index.
**A:** 3.44

**Q:** Given the entry "E11S" , report its measured protein stability index.
**A:** 3.1

**Q:** Given the entry "D15F" , report its measured protein stability index.
**A:** 2.24
